# target or test system: UniProtKB P14902
# test protocol: PBMC IDO1 assay (kynurenine by mass spectrometry)
# Format: cell-based
# test settings: human PBMC stimulated with IFN-γ and LPS, 2 days incubation, kynurenine detected by mass spectrometry; read-out: IDO1 PBMC pIC50 (converted)
measurement name: IC50 (nM)

{"columns": ["compound", "unit string", "meas value"],
 "data": [
  ["CCOC(=O)N1CCC2(CC1)C[C@H](NC(=O)c1cccc3cnn(C(C)=O)c13)c1cc(Br)ccc1O2", "nM", 3.98],
  ["CCOC(=O)N1CCC2(CC1)CC(NC(=O)c1cccnc1)c1cc(Br)ccc1O2 (stereo not drawn)", "nM", 79.4],
  ["CCOC(=O)N1CCC2(CC1)CC(NC(=O)c1cncc3cn[nH]c13)c1ccccc1O2 (stereo not drawn)", "nM", 126]
]}

---

Reported values of IC50 for individual entries
# target or test system: UniProt P14902
# test protocol: PBMC IDO1 assay (kynurenine by mass spectrometry)
# Format: cell-based
# test settings: human PBMC stimulated with IFN-γ and LPS, 2 days incubation, kynurenine detected by mass spectrometry; read-out: IDO1 PBMC pIC50 (converted)

{"columns": ["compound", "unit string", "IC50"],
 "data": [
  ["CCOC(=O)N1CCC2(CC1)C[C@H](NC(=O)c1cccc3cn(COP(=O)(O)O)nc13)c1nc(OC)ccc1O2 [Example 56]", "nM", 79.4],
  ["COC(=O)N1CCC2(CC1)C[C@H](NC(=O)c1cccc3cn(COP(=O)(O)O)nc13)c1cc(Br)ccc1O2 [Example 53]", "nM", 631],
  ["CCOC(=O)N1CCC2(CC1)C[C@H](NC(=O)c1cccc3cnn(C(=O)OCC)c13)c1cc(Br)ccc1O2 [Example 51]", "nM", 10],
  ["CCOC(=O)N1CCC2(CC1)CC(NC(=O)c1cccc3cn[nH]c13)c1nc(OC)ccc1O2 (stereo not shown) [Example 9]", "nM", 10],
  ["CCOC(=O)N1CCC2(CC1)C[C@H](NC(=O)c1cccc3cn(COP(=O)(O)O)nc13)c1cc(Br)ccc1O2 [Example 50]", "nM", 126],
  ["CCOC(=O)N1CCC2(CC1)C[C@H](NC(=O)c1ncc[nH]1)c1cc(Br)ccc1O2 [Example 32]", "nM", 200],
  ["O=C(N[C@H]1CC2(CCN(C(=O)Oc3ccccc3)CC2)Oc2ccc(Br)cc21)c1cccc2cn[nH]c12 [Example 31]", "nM", 200]
]}

---

Collected log10(IC50) values appear next to each entry.
# target or test system: indoleamine 2,3-dioxygenase (IDO1) (Homo sapiens)
# Sequence (P14902 whole entry): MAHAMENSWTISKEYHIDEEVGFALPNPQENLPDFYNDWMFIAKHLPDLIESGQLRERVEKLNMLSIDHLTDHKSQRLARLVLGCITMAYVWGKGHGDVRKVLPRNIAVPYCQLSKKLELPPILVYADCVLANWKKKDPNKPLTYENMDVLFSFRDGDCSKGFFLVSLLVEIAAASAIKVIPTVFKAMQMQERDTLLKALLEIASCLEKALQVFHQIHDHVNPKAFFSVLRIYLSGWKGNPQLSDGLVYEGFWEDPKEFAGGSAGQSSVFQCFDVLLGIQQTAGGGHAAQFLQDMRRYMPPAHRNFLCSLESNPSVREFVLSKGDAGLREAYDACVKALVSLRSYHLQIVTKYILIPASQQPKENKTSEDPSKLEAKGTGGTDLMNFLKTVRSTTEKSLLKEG
# test protocol: PBMC IDO1 assay (kynurenine by mass spectrometry)
# Type: cell-based
# test settings: human PBMC stimulated with IFN-γ and LPS, 2 days incubation, kynurenine detected by mass spectrometry; read-out: IDO1 PBMC pIC50 (converted)
measurement name: log10(IC50) (log10 of the value in µM)

{"columns": ["molecule", "log10(IC50)"],
 "data": [
  ["COC(=O)N1CCC2(CC1)C[C@H](NC(=O)c1cccc3cn[nH]c13)c1ccccc1O2 [Example 54]", -1.70],
  ["CCOC(=O)N1CCC2(CC1)CC(NC(=O)c1cccc3cn[nH]c13)c1ccncc1O2 (centres unmarked) [Example 33]", -0.70],
  ["CCOC(=O)N1CCC2(CC1)C[C@H](NC(=O)c1cccc3c(CO)n[nH]c13)c1cc(Br)ccc1O2 [Example 59]", -3.10],
  ["CCOC(=O)N1CCC2(CC1)CC(NC(=O)c1cccc3cn[nH]c13)c1cc(Br)ncc1O2 (centres unmarked) [Example 16]", -1.50],
  ["CCOC(=O)N1CCC2(CC1)C[C@H](NC(=O)c1ccn[nH]1)c1cc(Br)ccc1O2 [Example 44]", -0.20],
  ["CCOC(=O)N1CCC2(CC1)CC(NC(=O)c1cccc3ccn(C)c13)c1ccccc1O2 (centres unmarked) [Example 38]", -0.40],
  ["CCOC(=O)N1CCC2(CC1)CC(NC(=O)c1cccc3cn[nH]c13)c1cccnc1O2 (centres unmarked) [Example 42]", -0.30],
  ["CCOC(=O)N1CCC2(CC1)CC(NC(=O)c1cccc3cn[nH]c13)c1cc(CO)ccc1O2 (centres unmarked) [Example 18]", -1.40],
  ["CCOC(=O)N1CCC2(CC1)CC(NC(=O)c1cccc3cn[nH]c13)c1ncccc1O2 (centres unmarked) [Example 29]", -0.80],
  ["CCOC(=O)N1CCC2(CC1)CC(NC(=O)c1cccc3nc[nH]c13)c1ccccc1O2 (centres unmarked) [Example 39]", -0.40],
  ["CCOC(=O)N1CCC2(CC1)CC(NC(=O)c1ccnn1C)c1ccccc1O2 (centres unmarked) [Example 43]", -0.20],
  ["CCOC(=O)N1CCC2(CC1)CC(Nc1nnc(C(F)(F)F)s1)c1ccccc1O2 (centres unmarked) [Example 40]", -0.40],
  ["CCOC(=O)N1CCC2(CC1)C[C@H](NC(=O)c1cccc3[nH]ccc13)c1cc(Br)ccc1O2 [Example 8]", -2.30],
  ["CCOC(=O)N1CCC2(CC1)CC(NC(=O)c1cccnc1)c1nc(OC)ccc1O2 (centres unmarked) [Example 35]", -0.60],
  ["COC(=O)N1CCC2(CC1)C[C@H](NC(=O)c1cccc3cn[nH]c13)c1nc(OC)ccc1O2 [Example 57]", -2.00],
  ["CCOC(=O)N1CCC2(CC1)CC(NC(=O)c1ncccn1)c1ccccc1O2 (centres unmarked) [Example 45]", -0.10],
  ["CCCC(=O)N1CCC2(CC1)C[C@H](NC(=O)c1cccc3cn[nH]c13)c1cc(Br)ccc1O2 [Example 22]", -1.10],
  ["CCOC(=O)N1CCC2(CC1)C[C@H](NC(=O)c1cccc3c(COC(=O)CCC(=O)O)[nH]nc13)c1cc(Br)ccc1O2 [Example 60]", -2.90],
  ["COC(=O)N1CCC2(CC1)C[C@H](NC(=O)c1cccc3cc[nH]c13)c1cc(Br)ccc1O2 [Example 4]", -2.40],
  ["CCOC(=O)N1CCC2(CC1)CC(NC(=O)c1cncc(F)c1)c1ccccc1O2 (centres unmarked) [Example 30]", -0.70],
  ["CCOC(=O)N1CCC2(CC1)CC(NC(=O)c1cccc3cn[nH]c13)c1cc(Br)cnc1O2 (centres unmarked) [Example 23]", -1.10],
  ["CCOC(=O)N1CCC2(CC1)CC(NC(=O)c1cccnc1)c1ccccc1O2 (centres unmarked) [Example 41]", -0.30],
  ["CCOC(=O)N1CCC2(CC1)CC(NC(=O)c1cccc3cc[nH]c13)c1c(Br)cccc1O2 (centres unmarked) [Example 17]", -1.40],
  ["CCOC(=O)N1CCC2(CC1)C[C@H](NC(=O)c1cccc3c(COC(C)=O)[nH]nc13)c1cc(Br)ccc1O2 [Example 61]", -2.90],
  ["CCOC(=O)N1CCC2(CC1)CC(NC(=O)c1ncccc1OC)c1ccccc1O2 (centres unmarked) [Example 46]", -0.10],
  ["CCOC(=O)N1CCC2(CC1)C[C@H](NC(=O)c1cccc3cn(COP(=O)(O)O)nc13)c1cc(Br)ncc1O2 [Example 58]", -0.30],
  ["CCOC(=O)N1CCC2(CC1)CC(NC(=O)c1ccccn1)c1ccccc1O2 (centres unmarked) [Example 34]", -0.60],
  ["CCOC(=O)N1CCC2(CC1)C[C@H](NC(=O)c1cccc(O)n1)c1cc(Br)ccc1O2 [Example 25]", -1.00],
  ["CCOC(=O)N1CCC2(CC1)C[C@H](NC(=O)c1cccc3cn(COP(=O)(O)O)nc13)c1ccccc1O2 [Example 55]", -0.90],
  ["CCOC(=O)N1CCC2(CC1)C[C@H](NC(=O)c1ccccc1N)c1cc(Br)ccc1O2 [Example 10]", -1.90],
  ["CCOC(=O)N1CCC2(CC1)CC(NC(=O)c1cccc3cc[nH]c13)c1ccc(Br)cc1O2 (centres unmarked) [Example 24]", -1.00],
  ["COC(=O)N1CCC2(CC1)C[C@H](NC(=O)c1cccc3cn[nH]c13)c1cc(Br)ccc1O2 [Example 5]", -2.30]
]}
